Reported CDK2 % Inhibition at 0.03 μM is given for each of the following molecules.
Target: CDK2/Cyclin A (Homo sapiens, UniProt P24941)
Assay remarks: Inhibition of CDK2/Cyclin A Retinoblastoma Kinase Activity
Assay type: biochemical
Recorded conditions: 0.03 μM compound; Table 4
Readout label: CDK2 % Inhibition at 0.03 μM (%)

1) COc1cc(C(=O)N2CCC(Nc3nc(N)c(C(=O)c4c(F)cccc4F)s3)CC2)cc(OC)c1OC :: 24
2) Nc1nc(NC2CCN(C(=O)Cc3ccccc3)CC2)sc1C(=O)c1c(F)cccc1F :: 16
3) COc1cc(OC)cc(C(=O)N2CCC(Nc3nc(N)c(C(=O)c4c(F)cccc4F)s3)CC2)c1 :: 20
4) Nc1nc(NC2CCN(C(=O)c3ccccc3[N+](=O)[O-])CC2)sc1C(=O)c1c(F)cccc1F :: 41
